- MEASURED_ON: SARS-CoV-2 nsp14/10 (Severe acute respiratory syndrome coronavirus 2)
- EXPERIMENT_DESCRIPTION: Fluorescence polarization (FP) FTAD displacement assay, nsp14/10
- Format: binding
- EXPERIMENTAL_PARAMETERS: 50 nM FTAD, 2-fold dilution series of nsp14/10 from 3.00 μM to 46.9 nM; read-out: KD(FTAD, nsp14/10), FP-assay
MEASURED_QUANTITY: Kd (nM)
State just the number; it will be interpreted in nM.

IN: Please look up its Kd: Nc1ncnc2c1ncn2[C@@H]1O[C@H](CN(CC[C@H](N)C(=O)O)Cc2cn(CCNC(=O)c3ccc4c(c3)C(=O)OC43c4ccc(O)cc4Oc4cc(O)ccc43)nn2)[C@@H](O)[C@H]1O
OUT: 1300

---

Here the recorded pKd is given for each entry.
- MEASURED_ON: METTL3/14 (Homo sapiens)
- Construct: human METTL3 (UniProt: Q86U44 aa 252–580); Strep tag-II (C); made in house; host or cells: E. coli BL21(DE3), pETduet-1
- EXPERIMENT_DESCRIPTION: Fluorescence polarization (FP) FTAD displacement assay, METTL3/14
- Type: binding
- EXPERIMENTAL_PARAMETERS: 50 nM FTAD, 1 μM enzyme, compound dilution series
# log scale: pKd equals minus log10 of the concentration in mol/L

Below are worked cases with known answers.
Nc1ncnc2c1ncn2[C@@H]1O[C@H](CNS(=O)(=O)c2ccc3ccccc3c2)[C@@H](O)[C@H]1O = 4.89
CN(C)c1cccc2c(S(=O)(=O)NC[C@H]3O[C@@H](n4cnc5c(N)ncnc54)[C@H](O)[C@@H]3O)cccc12 = 4.65

IN: Please report the recorded pKd for Nc1ncnc2c1ncn2[C@@H]1O[C@H](CNS(=O)(=O)c2ccc(-c3ccccc3)cc2)[C@@H](O)[C@H]1O .
OUT: 4.79

---

- MEASURED_ON: METTL3/14 (Homo sapiens, UniProt Q86U44)
- Construct: human METTL3 (UniProt: Q86U44 aa 252–580); Strep tag-II (C); made in house; host or cells: E. coli BL21(DE3), pETduet-1
- Sequence (Q86U44 252-580): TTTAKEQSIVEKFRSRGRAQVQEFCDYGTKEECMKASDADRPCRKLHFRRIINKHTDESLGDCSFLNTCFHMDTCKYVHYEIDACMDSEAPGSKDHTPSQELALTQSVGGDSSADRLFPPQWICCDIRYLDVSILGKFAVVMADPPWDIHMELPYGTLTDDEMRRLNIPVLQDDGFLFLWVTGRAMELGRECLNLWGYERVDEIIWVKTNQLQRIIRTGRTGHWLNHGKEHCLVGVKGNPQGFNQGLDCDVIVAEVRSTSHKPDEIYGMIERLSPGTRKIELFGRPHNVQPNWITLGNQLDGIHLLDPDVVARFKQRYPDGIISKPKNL
- Sequence (Q9HCE5 108-444 partner limits assumed): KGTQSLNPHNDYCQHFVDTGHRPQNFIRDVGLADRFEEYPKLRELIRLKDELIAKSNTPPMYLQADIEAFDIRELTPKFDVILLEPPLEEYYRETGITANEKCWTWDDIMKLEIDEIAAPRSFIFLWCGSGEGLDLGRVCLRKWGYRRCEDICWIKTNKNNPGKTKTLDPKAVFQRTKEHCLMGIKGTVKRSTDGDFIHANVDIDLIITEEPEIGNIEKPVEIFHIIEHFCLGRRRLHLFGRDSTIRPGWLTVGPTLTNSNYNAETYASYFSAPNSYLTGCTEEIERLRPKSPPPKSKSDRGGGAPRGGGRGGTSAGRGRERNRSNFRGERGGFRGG
- EXPERIMENT_DESCRIPTION: Fluorescence polarization (FP) FTAD displacement assay, METTL3/14
- Assay type: binding
- EXPERIMENTAL_PARAMETERS: 100 μM compound, 50 nM FTAD, 1 μM enzyme
MEASURED_QUANTITY: displacement of FTAD

Nc1ncnc2c1ncn2[C@@H]1O[C@H](CNS(=O)(=O)c2ccc3ccccc3c2)[C@@H](O)[C@H]1O = ~92%
Nc1ncnc2c1ncn2[C@@H]1O[C@H](C[C@@H](N)CC[C@H](N)C(=O)O)[C@@H](O)[C@H]1O [SFG, sinefungin, reference compound] = 92%
CN(C)c1cccc2c(S(=O)(=O)NC[C@H]3O[C@@H](n4cnc5c(N)ncnc54)[C@H](O)[C@@H]3O)cccc12 = ~92%

# input for lookup
IN: Need displacement of FTAD, item Nc1ncnc2c1ncn2[C@@H]1O[C@H](CNS(=O)(=O)c2ccc(-c3ccccc3)cc2)[C@@H](O)[C@H]1O
OUT: ~92%
